# TARGET: mGAT1 (Mus musculus)
# Construct: expressed in transfected cells; host or cells: HEK-293
# TEST_DETAILS: [3H]GABA uptake assay in HEK-293 cells stably expressing mGAT1
# Format: cell-based
# RUN_CONDITIONS: [3H]GABA uptake; read-out: pIC50 ± SEM mGAT1 (converted)
MEASURE: IC50 (µM)

Answered cases to consult:
COMPOUND: CN(CCC=C1c2ccccc2C=Cc2ccccc21)C(CO)C(=O)NCc1ccccc1 (centres unmarked) [Compound 55a]
MEASURE: IC50
UNIT_LABEL: µM
NUMERIC_VALUE: 17.4
//
COMPOUND: CN(CCON=C(c1ccccc1)c1ccccc1)C(CO)C(=O)NCc1ccccc1 (centres unmarked) [Compound 59a]
MEASURE: IC50
UNIT_LABEL: µM
NUMERIC_VALUE: 22.9
//
COMPOUND: CC(=O)NCCC(C(=O)NCc1ccc(Cl)c(Cl)c1)N(C)CCON=C(c1ccccc1)c1ccccc1 (centres unmarked) [Compound 51b]
MEASURE: IC50
UNIT_LABEL: µM
NUMERIC_VALUE: 11.7
//
COMPOUND: CC(O)CC(C(=O)NCc1ccccc1)N1CCC(=C2c3ccccc3CCc3ccccc32)CC1 (centres unmarked) [2RS,4SR-43a]
MEASURE: IC50
UNIT_LABEL: µM
NUMERIC_VALUE: 19.5
//
COMPOUND: CN(CCON=C(c1ccccc1)c1ccccc1)C(CCO)C(=O)NCc1ccccc1Cl (centres unmarked) [Compound 47b]
MEASURE: IC50
UNIT_LABEL: µM
NUMERIC_VALUE: 31.6

A: CC(O)CC(C(=O)NCc1ccccc1)N1CCC(=C2c3ccccc3-c3ccccc32)CC1 (centres unmarked) [2RS,4SR-41a]
B: Cc1ccsc1C(=C1CCN(C(CO)C(=O)NCc2ccc(F)cc2)CC1)c1sccc1C (centres unmarked) [Compound 54c]
C: O=C(NCc1ccccc1)C(CO)N1CCC(=C2c3ccccc3-c3ccccc32)CC1 (centres unmarked)
Rank the items in ascending order with respect to IC50. Rank them, then answer with their labels in that order.
B, C, A

----------
# TARGET: mGAT2 (Mus musculus, UniProt P31651)
# Construct: expressed in transfected cells; host or cells: HEK-293
# Sequence (P31651 1-614): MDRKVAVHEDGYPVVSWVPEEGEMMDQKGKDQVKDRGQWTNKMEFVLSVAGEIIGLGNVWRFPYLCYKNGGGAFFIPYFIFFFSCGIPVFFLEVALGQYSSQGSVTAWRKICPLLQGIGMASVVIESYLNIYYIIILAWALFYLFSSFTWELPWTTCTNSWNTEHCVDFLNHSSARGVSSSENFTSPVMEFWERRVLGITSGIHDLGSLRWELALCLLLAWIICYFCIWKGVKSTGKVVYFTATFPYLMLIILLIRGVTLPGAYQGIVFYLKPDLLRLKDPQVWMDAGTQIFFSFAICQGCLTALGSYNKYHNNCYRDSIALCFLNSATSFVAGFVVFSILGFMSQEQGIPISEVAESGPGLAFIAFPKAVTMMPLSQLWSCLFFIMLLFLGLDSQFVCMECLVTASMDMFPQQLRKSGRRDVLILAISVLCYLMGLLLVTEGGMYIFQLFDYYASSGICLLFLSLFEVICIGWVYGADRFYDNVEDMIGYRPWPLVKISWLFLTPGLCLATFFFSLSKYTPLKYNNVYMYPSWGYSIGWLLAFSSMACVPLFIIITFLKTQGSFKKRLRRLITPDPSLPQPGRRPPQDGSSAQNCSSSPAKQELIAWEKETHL
# TEST_DETAILS: [3H]GABA uptake assay in HEK-293 cells stably expressing mGAT2
# Format: cell-based
# RUN_CONDITIONS: in the presence of 100 μM inhibitor
MEASURE: remaining [3H]GABA uptake mGAT2

Worked examples follow.
COMPOUND: CCC(C(=O)NCc1ccccc1Cl)N1CCC(=C(c2sccc2C)c2sccc2C)CC1 (centres unmarked) [Compound 64b]
TARGET: mGAT2 (Mus musculus, UniProt P31651)
remaining [3H]GABA uptake mGAT2: 100 μM: 101%
--
COMPOUND: Cc1ccsc1C(=C1CCN(C(CC(C)O)C(=O)NCc2ccccc2Cl)CC1)c1sccc1C (centres unmarked) [2RS,4RS-37b]
TARGET: mGAT2 (Mus musculus, UniProt P31651)
remaining [3H]GABA uptake mGAT2: 100 μM: 58%
--
COMPOUND: CC(O)CC(C(=O)NCc1ccc(F)cc1)N1CCC(=C2c3ccccc3CCc3ccccc32)CC1 (centres unmarked) [2RS,4RS-43b]
TARGET: mGAT2 (Mus musculus, UniProt P31651)
remaining [3H]GABA uptake mGAT2: 100 μM: 59%
--
COMPOUND: C[C@H](O)C[C@H](C(=O)NCc1ccc(Cl)cc1)N(C)CCC=C1c2ccccc2CCc2ccccc21 (relative stereo) [2RS,4SR-39b]
TARGET: mGAT2 (Mus musculus, UniProt P31651)
remaining [3H]GABA uptake mGAT2: 100 μM: 73%

# remaining [3H]GABA uptake mGAT2 lookup, item CCC(C(=O)NCc1ccccc1)N(C)CCON=C(c1ccccc1)c1ccccc1 (centres unmarked) [Compound 66a]
100 μM: 55%

May I ask what remaining [3H]GABA uptake mGAT2 has been recorded for CCOC(=O)[C@H](C)N(C)CCC=C1c2ccccc2C=Cc2ccccc21 [Compound 71] ?
100 μM: 54%

// lookup remaining [3H]GABA uptake mGAT2 for C[C@@H](O)C[C@H](C(=O)NCc1ccc(Cl)cc1)N(C)CCC=C1c2ccccc2CCc2ccccc21 (relative stereo) [2RS,4RS-39b]
100 μM: 73%

Find the recorded remaining [3H]GABA uptake mGAT2 belonging to Cc1ccsc1C(=C1CCN([C@H](C[C@H](C)O)C(=O)NCc2ccccc2)CC1)c1sccc1C (relative stereo) [2RS,4SR-37a] and report it.
100 μM: 60%

----------
# TARGET: mGAT3 (Mus musculus)
# Construct: expressed in transfected cells; host or cells: HEK-293
# Sequence (P31649 1-602): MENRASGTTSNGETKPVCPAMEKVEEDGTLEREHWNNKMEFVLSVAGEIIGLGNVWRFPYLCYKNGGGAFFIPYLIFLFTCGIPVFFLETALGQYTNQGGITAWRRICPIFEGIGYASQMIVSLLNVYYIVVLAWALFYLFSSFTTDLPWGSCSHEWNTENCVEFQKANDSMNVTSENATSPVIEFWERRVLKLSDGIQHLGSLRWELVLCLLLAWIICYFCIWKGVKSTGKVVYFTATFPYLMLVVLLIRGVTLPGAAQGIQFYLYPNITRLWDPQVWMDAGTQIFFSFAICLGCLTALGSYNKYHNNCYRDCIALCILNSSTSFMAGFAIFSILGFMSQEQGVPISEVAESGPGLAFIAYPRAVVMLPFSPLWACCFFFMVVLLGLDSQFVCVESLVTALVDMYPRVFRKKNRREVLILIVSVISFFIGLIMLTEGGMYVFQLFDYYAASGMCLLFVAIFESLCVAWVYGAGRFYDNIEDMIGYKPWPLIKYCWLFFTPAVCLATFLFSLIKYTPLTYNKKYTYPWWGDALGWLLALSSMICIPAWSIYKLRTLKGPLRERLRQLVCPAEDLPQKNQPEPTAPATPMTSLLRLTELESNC
# TEST_DETAILS: [3H]GABA uptake assay in HEK-293 cells stably expressing mGAT3
# Assay type: cell-based
# RUN_CONDITIONS: in the presence of 100 μM inhibitor
Quick list: remaining [3H]GABA uptake mGAT3 per entry.

MOLECULE: CCC(C(=O)NCc1ccccc1Cl)N1CCC(=C(c2sccc2C)c2sccc2C)CC1 (stereo not drawn) [Compound 64b]
MEASURE: remaining [3H]GABA uptake mGAT3
RESULT: 100 μM: 61%
//
MOLECULE: C[C@@H](C(=O)OCc1ccccc1)N(C)CCC=C1c2ccccc2C=Cc2ccccc21 [Compound 72]
MEASURE: remaining [3H]GABA uptake mGAT3
RESULT: 100 μM: 86%
//
MOLECULE: CC(O)CC(C(=O)NCc1ccc(F)cc1)N1CCC(=C2c3ccccc3CCc3ccccc32)CC1 (stereo not drawn) [2RS,4SR-43b]
MEASURE: remaining [3H]GABA uptake mGAT3
RESULT: 100 μM: 87%
//
MOLECULE: Cc1ccsc1C(=CCCN(C)C(C)C(=O)O)c1sccc1C (stereo not drawn) [Compound 75]
MEASURE: remaining [3H]GABA uptake mGAT3
RESULT: 100 μM: 52%
//
MOLECULE: CCC(C(=O)NCc1ccccc1)N1CCC(=C(c2sccc2C)c2sccc2C)CC1 (stereo not drawn) [Compound 64a]
MEASURE: remaining [3H]GABA uptake mGAT3
RESULT: 100 μM: 69%

Let's switch to this molecule now.
Find the recorded remaining [3H]GABA uptake mGAT3 belonging to C[C@@H](C(=O)O)N(C)CCC=C1c2ccccc2C=Cc2ccccc21 [Compound 74] and report it.
100 μM: 62%
